- Test system: cocklebur
- TEST_PROTOCOL: Test B pre/postemergence cocklebur
- Assay type: in vivo, Xanthium strumarium
- STUDY_CONDITIONS: Postemergence, Rate 250 g/ha; scale 0 to 10, 0 no effect, 10 complete control
METRIC_NAME: Cocklebur plant response rating

# example entries with known answers
[[record]]
molecule = "CCN(CC)C(=O)n1oc(=O)n(Cc2cccs2)c1=O [Compound 77]"
test_target = "cocklebur"
metric_name = "Cocklebur plant response rating"
value_reported = 0

[[record]]
molecule = "Cc1cccc(C)c1-n1c(=O)on(C(=O)N(c2ccc(Cl)cc2)C(C)C)c1=O [Compound 47]"
test_target = "cocklebur"
metric_name = "Cocklebur plant response rating"
value_reported = 2


## Input Look at this molecule and give its reported Cocklebur plant response rating. Cc1c(Cl)cccc1-n1c(=O)on(C(=O)N(c2ccc(F)cc2)C(C)C)c1=O [Compound 21]
## Output 5

## Input Look at this molecule and give its reported Cocklebur plant response rating. Cc1ccccc1-n1c(=O)on(C(=O)N(c2ccc(C(F)(F)F)cc2)C(C)C)c1=O [Compound 39]
## Output 0

---

Quick reference for Blackgrass plant response rating among some compounds
- System: blackgrass
- TEST_PROTOCOL: Test B pre/postemergence blackgrass
- Assay type: in vivo, Alopecurus myosuroides
- STUDY_CONDITIONS: Postemergence, Rate 500 g/ha; scale of 0 to 10 where 0 is no effect and 10 is complete control
A bare number is all that is needed in reply.

[[record]]
compound = "CC(C)N(C(=O)n1oc(=O)n(CC(=O)N(C)C)c1=O)c1ccc(Cl)cc1 [Compound 477]"
value_reported = 6

[[record]]
compound = "CC(C)N(C(=O)n1oc(=O)n(C(C)C(=O)N(C)C)c1=O)c1ccccc1 (centres unmarked) [Compound 479]"
value_reported = 7

[[record]]
compound = "CC(C)N(C(=O)n1oc(=O)n(CCl)c1=O)c1ccccc1 [Compound 423]"
value_reported = 2

[[record]]
compound = "CC(C)N(C(=O)n1oc(=O)n(CCC#N)c1=O)c1ccc(F)cc1 [Compound 388]"
value_reported = 10


Here is another compound to look at.
## Input Look at this compound and give its reported Blackgrass plant response rating. CC(C)N(C(=O)n1oc(=O)n(CCCl)c1=O)c1ccccc1 [Compound 469]
## Output 9

---

- Tested on: morningglory
- TEST_PROTOCOL: Test B pre/postemergence morningglory
- Type: in vivo, Ipomoea hederacea
- STUDY_CONDITIONS: Rate 500 g/ha, Postemergence; scale 0 to 10
Quick reference for Morningglory plant response rating among some compounds
A bare number is all that is needed in reply.

# example entries with known answers
[[record]]
compound = "CC(C)N(C(=O)n1oc(=O)n(Cc2ccco2)c1=O)c1ccc(F)cc1F [Compound 208]"
test_target = "morningglory"
value_reported = 3

[[record]]
compound = "CCc1cccc(C)c1-n1c(=O)on(C(=O)N(c2ccc(F)cc2)C(C)C)c1=O [Compound 201]"
test_target = "morningglory"
value_reported = 3

[[record]]
compound = "CC(C)N(C(=O)n1oc(=O)n([C@H](C)c2ccccc2)c1=O)c1ccc(F)cc1 [Compound 179]"
test_target = "morningglory"
value_reported = 5

[[record]]
compound = "C=CCn1c(=O)on(C(=O)N(c2ccc(F)cc2F)C(C)C)c1=O [Compound 151]"
test_target = "morningglory"
value_reported = 6


Here is another compound to look at.
## Input Look at this compound and give its reported Morningglory plant response rating. C=C(C)CCn1c(=O)on(C(=O)N(c2ccc(F)cc2)C(C)C)c1=O [Compound 199]
## Output 8

---

- Test system: blackgrass
- TEST_PROTOCOL: Test B pre/postemergence blackgrass
- Format: in vivo, Alopecurus myosuroides
- STUDY_CONDITIONS: Preemergence, Rate 125 g/ha; scale 0 to 10 (0 no effect, 10 complete control)
Quick reference for Plant response rating, Blackgrass among some compounds

# example entries with known answers
[[record]]
compound = "CCCn1c(=O)on(C(=O)N(c2ccc(F)cc2)C(C)C)c1=O [Compound 91]"
value_reported = 10

[[record]]
compound = "Cc1nn(C)c(Cl)c1-n1c(=O)on(C(=O)N(c2ccccc2)C(C)C)c1=O [Compound 121]"
value_reported = 4

[[record]]
compound = "Cc1ccccc1-n1c(=O)on(C(=O)N(c2ccc(C(F)(F)F)cc2)C(C)C)c1=O [Compound 39]"
value_reported = 0

[[record]]
compound = "CC(C)N(C(=O)n1oc(=O)n(C(C)C)c1=O)c1ccc(Cl)cc1 [Compound 114]"
value_reported = 8

[[record]]
compound = "Cc1ccccc1Cn1c(=O)on(C(=O)N(c2ccc(F)cc2F)C(C)C)c1=O [Compound 87]"
value_reported = 3

[[record]]
compound = "Cc1c(Cl)cccc1-n1c(=O)on(C(=O)N(c2ccc(F)cc2)C(C)C)c1=O [Compound 21]"
value_reported = 0


Here is another compound to look at.
## Input Look at this compound and give its reported Plant response rating, Blackgrass. Cc1cccc(Cl)c1-n1c(=O)on(C(=O)N(c2ccc(F)cc2)C(C)C)c1=O [Compound 53]
## Output 1

---

- System: cocklebur
- TEST_PROTOCOL: Test B pre/postemergence cocklebur
- Assay type: in vivo, Xanthium strumarium
- STUDY_CONDITIONS: Postemergence, Rate 125 g/ha; scale 0 to 10, 0 is no effect, 10 is complete control
METRIC_NAME: Plant response rating, Cocklebur
A bare number is all that is needed in reply.

[[record]]
molecule = "Cc1nnsc1Cn1c(=O)on(C(=O)N(c2ccccc2)C(C)C)c1=O"
value_reported = 0

[[record]]
molecule = "CC(C)N(C(=O)n1oc(=O)n(-c2ccc3ccccc3c2)c1=O)c1ccc(F)cc1"
value_reported = 0

[[record]]
molecule = "CC(C)N(C(=O)n1oc(=O)n(-c2ccc3ccccc3c2)c1=O)c1ccc(Cl)cc1"
value_reported = 0


## Input Look at this molecule and give its reported Plant response rating, Cocklebur. CC(C)N(C(=O)n1oc(=O)n(N2C(C)CCCC2C)c1=O)c1ccc(F)cc1 (stereo not shown)
## Output 0

## Input Look at this molecule and give its reported Plant response rating, Cocklebur. `Cc1nsc(Cl)c1Cn1c(=O)on(C(=O)N(c2ccccc2)C(C)C)c1=O`
## Output 0

## Input Look at this molecule and give its reported Plant response rating, Cocklebur. CC(C)C(C)n1c(=O)on(C(=O)N(c2ccccc2)C(C)C)c1=O (stereo not shown)
## Output 0

## Input Look at this molecule and give its reported Plant response rating, Cocklebur. `CC(C)N(C(=O)n1oc(=O)n(CCC#N)c1=O)c1ccc(F)cc1`
## Output 0

---

- Tested on: crabgrass
- TEST_PROTOCOL: Test B pre/postemergence crabgrass
- Format: in vivo, Digitaria sanguinalis
- STUDY_CONDITIONS: Rate 500 g/ha, Postemergence; scale 0 to 10, 0 no effect, 10 complete control
Quick reference for Plant response rating, Crabgrass among some compounds

# example entries with known answers
[[record]]
compound = "Cc1ccc(N(C(=O)n2oc(=O)n(-c3ccc4ccccc4c3)c2=O)C(C)C)cc1"
test_target = "crabgrass"
value_reported = 0

[[record]]
compound = "CC(C)N(C(=O)n1oc(=O)n(-c2ccc3ccccc3c2)c1=O)c1ccc(F)cc1"
test_target = "crabgrass"
value_reported = 0

[[record]]
compound = "CCC(CC)n1c(=O)on(C(=O)N(c2ccccc2)C(C)C)c1=O"
test_target = "crabgrass"
value_reported = 3


## Input Look at this compound and give its reported Plant response rating, Crabgrass. `Cc1c(-n2c(=O)on(C(=O)N(c3ccc(Cl)cc3)C(C)C)c2=O)ccc2ccccc12`
## Output 0

## Input Look at this compound and give its reported Plant response rating, Crabgrass. C=CCn1c(=O)on(C(=O)N(c2ccc(Cl)cc2)C(C)C2CC2)c1=O (centres unmarked)
## Output 0

---

- Test system: velvetleaf
- TEST_PROTOCOL: Test B pre/postemergence velvetleaf
- Format: in vivo, Abutilon theophrasti
- STUDY_CONDITIONS: Preemergence, Rate 125 g/ha; scale of 0 to 10 where 0 is no effect and 10 is complete control
METRIC_NAME: Plant response rating, Velvetleaf

[[record]]
compound = "COP(=O)(CCn1c(=O)on(C(=O)N(c2ccc(Cl)cc2)C(C)C)c1=O)OC [Compound 698]"
test_target = "velvetleaf"
metric_name = "Plant response rating, Velvetleaf"
value_reported = 0

[[record]]
compound = "Cc1nc(C(C)n2c(=O)on(C(=O)N(c3ccc(F)cc3)C(C)C)c2=O)sc1C (centres unmarked) [Compound 757]"
test_target = "velvetleaf"
metric_name = "Plant response rating, Velvetleaf"
value_reported = 0


## Input Please state recorded Plant response rating, Velvetleaf (tested on velvetleaf) of CC(C)N(C(=O)n1oc(=O)n(CC2CCCCO2)c1=O)c1ccc(F)cc1F (centres unmarked) [Compound 715]
## Output 5

## Input Please state recorded Plant response rating, Velvetleaf (tested on velvetleaf) of CC(C)N(C(=O)n1oc(=O)n(C(C)C(=O)N(C)C)c1=O)c1ccccc1 (centres unmarked) [Compound 479]
## Output 0

## Input Please state recorded Plant response rating, Velvetleaf (tested on velvetleaf) of Cc1nc(C)c(C(C)n2c(=O)on(C(=O)N(c3ccccc3)C(C)C)c2=O)s1 (centres unmarked) [Compound 442]
## Output 0

## Input Please state recorded Plant response rating, Velvetleaf (tested on velvetleaf) of CC(C)N(C(=O)n1oc(=O)n(C[C@H](C)Cl)c1=O)c1ccccc1 [Compound 747]
## Output 6

## Input Please state recorded Plant response rating, Velvetleaf (tested on velvetleaf) of CC(C)N(C(=O)n1oc(=O)n(CCBr)c1=O)c1ccccc1 [Compound 415]
## Output 2

## Input Please state recorded Plant response rating, Velvetleaf (tested on velvetleaf) of COC(=O)C(c1ccccc1)n1c(=O)on(C(=O)N(c2ccccc2)C(C)C)c1=O (centres unmarked) [Compound 723]
## Output 0
